target: T1, cynomolgus monkey BCMA (cynomolgus monkey, UniProt A0A2K5UD97 1-53); experiment: SPR, IgG on chip, cyBCMA analyte, 37C
T1 construct: Soluble analyte in SPR; construct not described; also called cyBCMA; Cyno BCMA
T1 sequence (A0A2K5UD97 entry or part of it): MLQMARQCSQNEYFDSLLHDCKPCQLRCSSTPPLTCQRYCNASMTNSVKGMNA
As shown below, each of these binders has a reported T½ value.
metric: T½ (min)

binder	metric	quantitativeResult
L3.PY/L3.KF/H2.YQ (antibody, V domains shown, IgG) VH: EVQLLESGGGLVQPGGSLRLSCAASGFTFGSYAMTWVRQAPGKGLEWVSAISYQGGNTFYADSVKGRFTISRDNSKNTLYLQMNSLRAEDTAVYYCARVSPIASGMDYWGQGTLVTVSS VL: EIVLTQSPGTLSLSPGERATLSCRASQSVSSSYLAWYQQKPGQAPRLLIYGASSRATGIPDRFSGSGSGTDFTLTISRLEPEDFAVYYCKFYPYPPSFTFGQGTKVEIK	T½	2.3
L3.PY/L3.KF/H2.DY (antibody, V domains shown, IgG) VH: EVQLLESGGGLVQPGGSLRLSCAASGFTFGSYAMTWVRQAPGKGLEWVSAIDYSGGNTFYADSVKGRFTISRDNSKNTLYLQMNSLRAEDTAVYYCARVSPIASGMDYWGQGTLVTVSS VL: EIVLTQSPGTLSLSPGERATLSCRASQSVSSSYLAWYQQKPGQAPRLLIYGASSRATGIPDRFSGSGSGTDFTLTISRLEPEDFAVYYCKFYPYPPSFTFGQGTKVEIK	T½	3.14
L3.PY/L1.FF/H3.AE (antibody, V domains shown, IgG) VH: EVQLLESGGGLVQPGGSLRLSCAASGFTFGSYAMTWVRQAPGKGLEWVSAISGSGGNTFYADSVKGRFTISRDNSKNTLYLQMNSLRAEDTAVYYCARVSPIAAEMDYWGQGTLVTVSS VL: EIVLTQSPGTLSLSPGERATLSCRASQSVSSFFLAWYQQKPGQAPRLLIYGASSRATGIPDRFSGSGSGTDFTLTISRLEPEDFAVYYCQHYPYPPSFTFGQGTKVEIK	T½	2.31
L3.PY/L1.PH/H3.AQ (antibody, V domains shown, IgG) VH: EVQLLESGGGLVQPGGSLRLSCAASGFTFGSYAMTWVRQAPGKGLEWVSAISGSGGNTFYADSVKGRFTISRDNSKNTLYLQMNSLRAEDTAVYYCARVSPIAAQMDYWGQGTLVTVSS VL: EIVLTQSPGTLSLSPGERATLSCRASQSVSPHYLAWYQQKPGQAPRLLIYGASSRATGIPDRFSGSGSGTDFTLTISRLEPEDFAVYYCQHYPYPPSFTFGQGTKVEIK	T½	3.39
L3.PY/L3.KF/H2.LT (antibody, V domains shown, IgG) VH: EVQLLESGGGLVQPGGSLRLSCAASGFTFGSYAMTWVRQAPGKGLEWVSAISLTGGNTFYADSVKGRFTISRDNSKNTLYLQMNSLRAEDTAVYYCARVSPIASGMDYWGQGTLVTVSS VL: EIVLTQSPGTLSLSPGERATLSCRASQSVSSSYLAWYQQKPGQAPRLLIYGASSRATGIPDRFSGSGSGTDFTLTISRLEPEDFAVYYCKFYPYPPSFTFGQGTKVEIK	T½	2.8
